These measurements were taken from patent US20240132622A1.

# Assayed System: T1, recombinant human PAD4 (human, UniProt Q9UM07 1-663)
# T1 construct: also called rhPAD4; hPAD4
# T1 sequence (Q9UM07 whole entry): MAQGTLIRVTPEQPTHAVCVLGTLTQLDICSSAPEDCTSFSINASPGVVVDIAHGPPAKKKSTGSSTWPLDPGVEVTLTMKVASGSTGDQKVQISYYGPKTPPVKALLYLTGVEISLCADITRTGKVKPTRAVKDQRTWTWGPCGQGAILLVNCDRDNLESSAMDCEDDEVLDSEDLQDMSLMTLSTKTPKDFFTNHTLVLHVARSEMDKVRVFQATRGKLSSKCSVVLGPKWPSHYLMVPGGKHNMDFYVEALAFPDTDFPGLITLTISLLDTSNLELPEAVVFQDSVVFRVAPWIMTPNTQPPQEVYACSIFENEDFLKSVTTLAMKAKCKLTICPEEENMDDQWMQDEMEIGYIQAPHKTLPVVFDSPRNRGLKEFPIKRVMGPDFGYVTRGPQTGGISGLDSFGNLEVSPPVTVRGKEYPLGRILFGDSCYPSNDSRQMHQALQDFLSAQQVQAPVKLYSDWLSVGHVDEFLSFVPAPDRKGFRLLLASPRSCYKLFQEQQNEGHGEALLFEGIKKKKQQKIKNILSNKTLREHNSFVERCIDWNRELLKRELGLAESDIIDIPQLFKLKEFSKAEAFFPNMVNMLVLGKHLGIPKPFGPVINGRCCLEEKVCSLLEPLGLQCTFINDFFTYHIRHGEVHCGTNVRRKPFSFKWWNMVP
# Measurement Description: SPR 37 C, captured antibody, PAD4 analyte, 1 mM CaCl2
# Procedure: Their binding to human PAD4 was measured by Surface Plasmon Resonance (SPR). SPR measurements were performed with a Biacore® 8K, 8K+, or T200 instrument (Cytiva). The association rate constants, kₒₙ, dissociation rate constants, koff, and equilibrium dissociation constants, KD, of the antibodies with PAD4 were determined from these SPR measurements. For SPR measurements, either an anti-human capture surface or Protein A surface (Cytiva catalog #29127555) was used. […]
Outcome Measure: kon (M⁻¹ s⁻¹)
Give the value, in units of M⁻¹ s⁻¹, as a plain number.

hz13-4 (antibody, V domains shown, light constant region not tied to this antibody) VH: EVLLVQSGAEVKKPGASVKLSCTSSDFNIKDHFIHWVRQAPGKGLEWMGRIDPEDDETKYAPKFQDRVTMTADTSTDTAYMELSSLRSEDTAVFYCAGYGNYEGAMDYWGQGTLVTVSS VL: DIQMTQSPSSLSASVGDRVTITCRASENVNNYGIGFMNWYQQKPGKAPKLLIYAASRRGSGVPSRFSGSGSGTDFTLTISSLQPEDFATYYCQQSKEVPYTFGQGTKVEIK
930000

Record request: kon value, item hz20-13 (antibody, V domains shown, light constant region not tied to this antibody) VH: QVQLVQSGAEVKKPGASVKVSCKASGYTFTNYGISWVRQRPGQGLEWMGEIYPRSGNTYHNEKFKDRVTMTTDKSTSTAYMELRSLRSEDTAVYYCARSMITTRYWYFDVWGKGTTVTVSS VL: DIVMTQSPDSLAVSLGERATINCRASESVDTYGNSFMHWYQQKPGQPPKLLIYLASNLESGVPDRFSGSGSGTDFTLTISSLQAEDVAVYYCQQNNEDPLTFGQGTKLEIK 390000
